Target: HIV-1 RNase H (Human immunodeficiency virus type 1 group M subtype B)
Assay explanation: HIV-1 RNase H inhibition assay
Format: biochemical
pIC50: −log10 of the molar value. Structures can show the parent of a compound that is named as a salt.
Observed property: pIC50

>>> endpoint_result("Oc1cc(O)cc(/C=C/c2ccc(O)c(O)c2)c1 [MN32, Piceatannol]")
6.41
>>> endpoint_result("Oc1cc2c(cc1O)[C@H]1c3ccccc3CN[C@@H]1CC2 (racemic) [MN8, Dihydrexidine hydrochloride]")
"< 4.60"
>>> endpoint_result("CN1CCc2cccc3c2[C@H]1Cc1ccc(O)c(O)c1-3 [MN2]")
"< 4.60"

====

Target: UniProt P31941
Assay explanation: fluorescence-based ssDNA cytosine deaminase assay, A3A
Format: biochemical
Observed property: inhibition of A3A (in words)

>>> endpoint_result("NC(Cc1cc(O)c(O)cc1O)C(=O)O (racemic) [MN23, 6-Hydroxy-DL-DOPA]")
"inhibit A3A"
>>> endpoint_result("O=c1c(O)c(-c2cc(O)c(O)c(O)c2)oc2cc(O)cc(O)c12 [MN27, Myricetin]")
"inhibit A3A"

====

Target: human A3A (APOBEC3A) (Homo sapiens, UniProt P31941)
Sequence (P31941 whole entry): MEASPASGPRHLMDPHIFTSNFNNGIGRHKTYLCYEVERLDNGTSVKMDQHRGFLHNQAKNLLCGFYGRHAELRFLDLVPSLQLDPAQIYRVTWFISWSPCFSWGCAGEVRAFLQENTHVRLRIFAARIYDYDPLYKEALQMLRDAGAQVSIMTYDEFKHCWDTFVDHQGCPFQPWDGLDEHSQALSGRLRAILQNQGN
Assay explanation: fluorescence-based ssDNA cytosine deaminase assay, A3A
Type: biochemical
pIC50: −log10 of the molar value. Where a name gives a salt, the structure may show the parent alone.
We begin with a simple list: items and their reported pIC50.
Observed property: pIC50

>>> endpoint_result("Oc1ccc(O)cc1 [MN21, Hydroquinone]")
"< 3.70"
>>> endpoint_result("O=c1cc(O)cc(/C=C/c2ccc(O)c(O)c2)o1 [MN24, Hispidin]")
"< 3.70"
>>> endpoint_result("CC(=O)OCC1=C(C(=O)O)N2C(=O)[C@@H](NC(=O)CSc3ccncc3)[C@H]2SC1 [MN7, Cephapirin sodium salt]")
4.92
>>> endpoint_result("O=C(O)Cc1ccc(O)c(O)c1 [MN12, 3,4-Dihydroxyphenylacetic acid]")
"< 3.70"
>>> endpoint_result("O=C(O)/C=C/c1ccc(O)c(O)c1 [MN5, Caffeic acid]")
"< 3.70"

====

We begin with a simple list: items and their reported IC50.
Target: human A3G (APOBEC3G) (Homo sapiens, UniProt Q9HC16)
Sequence (Q9HC16 whole entry): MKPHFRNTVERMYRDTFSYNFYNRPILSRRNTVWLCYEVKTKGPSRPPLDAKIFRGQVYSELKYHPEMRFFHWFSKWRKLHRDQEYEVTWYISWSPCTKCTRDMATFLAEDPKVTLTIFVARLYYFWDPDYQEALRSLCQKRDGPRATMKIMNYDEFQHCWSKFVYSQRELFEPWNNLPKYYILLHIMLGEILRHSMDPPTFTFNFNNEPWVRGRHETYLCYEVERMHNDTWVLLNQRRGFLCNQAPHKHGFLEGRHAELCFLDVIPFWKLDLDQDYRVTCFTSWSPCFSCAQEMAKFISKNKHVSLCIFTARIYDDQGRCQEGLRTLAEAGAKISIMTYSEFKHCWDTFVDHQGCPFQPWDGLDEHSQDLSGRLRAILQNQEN
Assay explanation: fluorescence-based ssDNA cytosine deaminase assay, A3G
Assay type: biochemical
Recorded conditions: read-out: IC50 Values A3G; dose response, purified full-length A3G-mycHis
Where a name gives a salt, the structure may show the parent alone.
Observed property: IC50

>>> endpoint_result("O=C(O)c1cc[c]([Hg][Cl])cc1 [MN6, 4-Chloromercuribenzoic acid]")
"0.13 µM"
>>> endpoint_result("CCCN1CCc2cc(O)cc3c2[C@H]1Cc1ccc(O)c(O)c1-3 [MN17]")
"13 µM"
>>> endpoint_result("CCCN1CCc2cccc3c2[C@H]1Cc1ccc(O)c(O)c1-3 [MN14, R(−)-Propylnorapomorphine hydrochloride]")
"6.4 µM"
>>> endpoint_result("O=C(/C=C/c1ccc(O)c(O)c1)O[C@@H](C(=O)O)[C@@H](OC(=O)/C=C/c1ccc(O)c(O)c1)C(=O)O [L-Chicoric Acid, reference compound]")
"2.8 µM"

====

Target: E. coli uracil DNA glycosylase (UDG) (Escherichia coli, UniProt P12295)
Sequence (P12295 whole entry): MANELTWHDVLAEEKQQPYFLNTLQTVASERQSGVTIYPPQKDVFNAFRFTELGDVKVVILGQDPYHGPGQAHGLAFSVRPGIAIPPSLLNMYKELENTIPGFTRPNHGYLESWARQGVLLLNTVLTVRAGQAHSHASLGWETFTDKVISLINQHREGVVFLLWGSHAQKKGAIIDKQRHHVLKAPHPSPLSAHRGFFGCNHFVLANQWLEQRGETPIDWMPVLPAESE
Assay explanation: UDG assay
Assay type: biochemical
pIC50: −log10 of the molar value. Structures can show the parent of a compound that is named as a salt.
Observed property: pIC50

>>> endpoint_result("O=C(O)C1=CC(=C(c2ccc(O)c(C(=O)O)c2)c2ccc(O)c(C(=O)O)c2)C=CC1=O")
4.82
>>> endpoint_result("Oc1cc(O)cc(/C=C/c2ccc(O)c(O)c2)c1")
"< 3.70"
>>> endpoint_result("Oc1cc2c(cc1O)[C@H]1c3ccccc3CN[C@@H]1CC2 (racemic) [MN8, Dihydrexidine hydrochloride]")
"< 3.70"
>>> endpoint_result("CN(N=O)c1cc(O)ccc1O")
"< 3.70"
>>> endpoint_result("O=C(O)/C=C/c1ccc(O)c(O)c1")
"< 3.70"
>>> endpoint_result("CN1CCc2cccc3c2[C@H]1Cc1ccc(O)c(O)c1-3")
"< 3.70"
>>> endpoint_result("O=c1cc(O)cc(/C=C/c2ccc(O)c(O)c2)o1")
"< 3.70"
>>> endpoint_result("O=C(O)Cc1ccc(O)c(O)c1 [MN12, 3,4-Dihydroxyphenylacetic acid]")
"< 3.70"
>>> endpoint_result("O=c1c(O)c(-c2cc(O)c(O)c(O)c2)oc2cc(O)cc(O)c12")
"< 3.70"
